# test: qHTS for differential inhibitors of proliferation of Plasmodium falciparum line Dd2 (AID 1882); note: nearly all actives have a fitted effect of over 65% in size
# condition parameters: Plasmodium falciparum Dd2 proliferation inhibition; series mostly up to 28.7 µM
Records with an inconclusive call do not appear. The source made the active and inactive calls. Calls come from the whole dose curve; as a rule, active = well fitted inhibition curve with a large enough effect; inconclusive = small, poorly fitted or top-dose-only effect; inactive = flat fitted curve, though single readings scatter.
Select the matching outcome among yes (1) for active, no (0) for inactive

Just curious, what result did C[C@@H](Oc1ccc(Oc2cnc3ccc(Cl)cc3n2)cc1)C(=O)O get here? no (0)

Just curious, what result did CNC(=O)[C@H]1O[C@@H](n2cnc3c(N)ncnc32)[C@H](O)[C@H]1O get here? no (0)

Just curious, what result did NC(=NCc1ccc(Cl)c(Cl)c1)NC(=O)c1nc(Cl)c(N)nc1N get here? yes (1)

Just curious, what result did CN1CCc2c(cc(O)c(O)c2Cl)C(c2cccc(Cl)c2)C1 (centres undefined) get here? yes (1)

Cited source for all entries: PubChem BioAssay (NCATS)
